system: Hs578T complex spheroid growth, percent test/control; assay: Anticancer human tumor Hs578T cell line growth inhibition [AhR]; settings: curve of first compound; second compound 0.1 µM;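 further: luminescent viability signal as a proxy for spheroid growth; spheroids exposed to agents for one week after three days of growth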
pIC50: −log10 of the molar value.
Listing of recorded pIC50 by entry.

- COMPOUND: "Nc1ncn(C2CC(O)C(CO)O2)c(=O)n1 (configuration not stated) + Cc1ccccc1N=Nc1ccc(NC(=O)c2ccnn2C)c(C)c1"
  LT GT EQ: "<"
  pIC50: 6.00
- COMPOUND: "Cn1ncnc1C1c2n[nH]c(=O)c3cc(F)cc(c23)NC1c1ccc(F)cc1 (configuration not stated) + CC(CO)NC(=O)c1cc(-c2ccc(Cl)cc2)nn(-c2cnn(C)c2)c1=O"
  LT GT EQ: "<"
  pIC50: 7.00
- COMPOUND: "CC(C)CC(NC(=O)C(Cc1ccccc1)NC(=O)c1cnccn1)B(O)O (configuration not stated) + Cc1cncc(-c2nc(NCCc3c[nH]c4ccccc34)c3ncn(C(C)C)c3n2)c1"
  LT GT EQ: "="
  pIC50: 8.15
- COMPOUND: "COc1cccc2c1C(=O)c1c(O)c3c(c(O)c1C2=O)CC(O)(C(=O)CO)CC3OC1CC(N)C(O)C(C)O1 (configuration not stated) + CC(CO)NC(=O)c1cc(-c2ccc(Cl)cc2)nn(-c2cnn(C)c2)c1=O"
  LT GT EQ: "="
  pIC50: 6.33
- COMPOUND: "Nc1ccccc1NC(=O)c1ccc(CNC(=O)OCc2cccnc2)cc1 + CC(CO)NC(=O)c1cc(-c2ccc(Cl)cc2)nn(-c2cnn(C)c2)c1=O"
  LT GT EQ: "="
  pIC50: 5.79
- COMPOUND: "CC(C)CC(NC(=O)C(Cc1ccccc1)NC(=O)c1cnccn1)B(O)O (configuration not stated) + CC(CO)NC(=O)c1cc(-c2ccc(Cl)cc2)nn(-c2cnn(C)c2)c1=O"
  LT GT EQ: "="
  pIC50: 8.33
- COMPOUND: "Nc1ccn(C2OC(CO)C(O)C2(F)F)c(=O)n1 (configuration not stated) + CC(CO)NC(=O)c1cc(-c2ccc(Cl)cc2)nn(-c2cnn(C)c2)c1=O"
  LT GT EQ: "<"
  pIC50: 5.00
- COMPOUND: "CCc1c2c(nc3ccc(O)cc13)-c1cc3c(c(=O)n1C2)COC(=O)[C@]3(O)CC + Cc1cncc(-c2nc(NCCc3c[nH]c4ccccc34)c3ncn(C(C)C)c3n2)c1"
  LT GT EQ: "="
  pIC50: 6.87
- COMPOUND: "CC1COCCN1c1cc(-c2ccnn2C)c2ccnc(-c3ccn[nH]3)c2n1 (configuration not stated) + Cc1ccccc1N=Nc1ccc(NC(=O)c2ccnn2C)c(C)c1"
  LT GT EQ: "="
  pIC50: 6.50
- COMPOUND: "CC1(C)CCC(CN2CCN(c3ccc(C(=O)NS(=O)(=O)c4ccc(NCC5CCOCC5)c([N+](=O)[O-])c4)c(Oc4cnc5[nH]ccc5c4)c3)CC2)=C(c2ccc(Cl)cc2)C1 + CC(CO)NC(=O)c1cc(-c2ccc(Cl)cc2)nn(-c2cnn(C)c2)c1=O"
  LT GT EQ: "<"
  pIC50: 5.00
- COMPOUND: "CCc1c2c(nc3ccc(O)cc13)-c1cc3c(c(=O)n1C2)COC(=O)[C@]3(O)CC + Cc1ccccc1N=Nc1ccc(NC(=O)c2ccnn2C)c(C)c1"
  LT GT EQ: "="
  pIC50: 7.07
- COMPOUND: "COc1ccc([C@@H](O)c2cc(-c3ncnc4cc(N5CCOCC5)ccc34)c(F)cc2Cl)nn1 + Cc1ccccc1N=Nc1ccc(NC(=O)c2ccnn2C)c(C)c1"
  LT GT EQ: "="
  pIC50: 5.47
